Target: truncated form of human NaV 1.8 with full channel activity (Homo sapiens, UniProt Q9Y5Y9)
Sequence (Q9Y5Y9 126-1722 limits assumed): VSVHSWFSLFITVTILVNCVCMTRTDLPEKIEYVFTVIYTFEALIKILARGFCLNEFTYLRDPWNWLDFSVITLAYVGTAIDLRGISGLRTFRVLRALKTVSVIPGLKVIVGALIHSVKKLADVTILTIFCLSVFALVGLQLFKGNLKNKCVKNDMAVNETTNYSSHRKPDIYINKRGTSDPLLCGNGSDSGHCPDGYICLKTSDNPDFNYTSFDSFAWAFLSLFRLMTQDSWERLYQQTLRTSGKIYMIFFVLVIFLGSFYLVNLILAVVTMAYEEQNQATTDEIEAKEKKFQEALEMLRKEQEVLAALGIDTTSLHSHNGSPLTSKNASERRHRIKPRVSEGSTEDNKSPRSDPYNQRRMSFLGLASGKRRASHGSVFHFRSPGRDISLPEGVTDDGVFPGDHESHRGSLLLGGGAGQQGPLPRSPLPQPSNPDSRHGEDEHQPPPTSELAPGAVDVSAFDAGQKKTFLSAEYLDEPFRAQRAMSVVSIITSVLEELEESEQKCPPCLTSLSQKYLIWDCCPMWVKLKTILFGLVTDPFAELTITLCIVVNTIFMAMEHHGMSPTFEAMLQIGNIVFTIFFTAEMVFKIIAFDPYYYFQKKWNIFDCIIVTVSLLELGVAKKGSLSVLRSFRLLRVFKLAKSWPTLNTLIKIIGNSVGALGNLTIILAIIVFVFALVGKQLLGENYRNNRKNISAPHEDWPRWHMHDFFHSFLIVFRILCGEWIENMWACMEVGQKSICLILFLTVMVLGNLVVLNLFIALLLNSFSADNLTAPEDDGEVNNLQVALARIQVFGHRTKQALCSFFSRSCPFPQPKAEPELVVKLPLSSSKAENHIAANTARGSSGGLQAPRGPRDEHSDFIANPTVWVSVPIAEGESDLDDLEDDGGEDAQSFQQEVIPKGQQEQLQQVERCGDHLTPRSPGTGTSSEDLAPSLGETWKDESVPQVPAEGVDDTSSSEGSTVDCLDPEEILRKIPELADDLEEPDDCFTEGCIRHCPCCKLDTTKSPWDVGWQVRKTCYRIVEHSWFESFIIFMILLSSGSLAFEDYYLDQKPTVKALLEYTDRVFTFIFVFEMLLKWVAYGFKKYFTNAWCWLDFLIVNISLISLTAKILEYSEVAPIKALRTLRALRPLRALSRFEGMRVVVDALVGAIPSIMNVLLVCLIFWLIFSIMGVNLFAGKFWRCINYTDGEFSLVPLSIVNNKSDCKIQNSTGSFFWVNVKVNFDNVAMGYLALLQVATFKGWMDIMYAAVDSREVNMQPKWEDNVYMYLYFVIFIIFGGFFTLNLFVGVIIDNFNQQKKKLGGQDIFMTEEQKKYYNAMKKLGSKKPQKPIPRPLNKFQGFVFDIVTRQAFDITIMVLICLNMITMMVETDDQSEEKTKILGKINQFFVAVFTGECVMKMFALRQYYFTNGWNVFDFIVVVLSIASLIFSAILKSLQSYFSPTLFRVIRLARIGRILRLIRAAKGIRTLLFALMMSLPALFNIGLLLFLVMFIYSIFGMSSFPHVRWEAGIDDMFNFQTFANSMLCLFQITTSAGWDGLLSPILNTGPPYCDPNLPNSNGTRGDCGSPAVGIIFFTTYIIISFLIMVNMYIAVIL
Test: E-VIPR Assay Method A for detecting and measuring Nav inhibition (HEK cells, membrane potential FRET dyes, electrical stimulation)
Assay type: cell-based
Settings: HEK cells expressing human NaV 1.8, HS (human serum) in compound loading buffer, 11 point dose response, top dose 3 μM, Table 20A, read-out: Nav 1.8 MedChem Optical Assay EVIPR Assay Method A HS IC50
measured metric: pIC50
Numbers only, as −log10 of the molar value.

Observe how each entry below is paired with its result.
COc1cc(OC(F)(F)F)ccc1Oc1cc(Cl)cc(F)c1C(=O)Nc1ccnc(C(N)=O)c1    7.85
NC(=O)c1cc(NC(=O)c2c(Oc3ccc(OC(F)(F)F)cc3)ccc(C(F)(F)F)c2F)cc[n+]1[O-]    7.26
[2H]C([2H])([2H])Oc1cc(OC(F)(F)F)ccc1Oc1cc(Cl)cc(Cl)c1C(=O)Nc1ccnc(C(N)=O)c1    8.00
[2H]C([2H])([2H])Oc1cc(OC(F)(F)F)ccc1Oc1ccc(C(F)(F)F)c(F)c1C(=O)Nc1cnc(C(N)=O)cc1C    6.82
Cc1cnc(C(N)=O)cc1NC(=O)c1c(Oc2ccc(OC(F)(F)F)cc2)ccc(Cl)c1F    7.14
COc1cc(OC(F)(F)F)ccc1Oc1cc(C(F)(F)F)cc(F)c1C(=O)Nc1ccnc(C(N)=O)c1    7.96
[2H]C([2H])([2H])Oc1c(Oc2cc(Cl)cc(Cl)c2C(=O)Nc2ccnc(C(N)=O)c2)ccc(OC(F)(F)F)c1F    8.05
COc1cc(OC(F)(F)F)ccc1Oc1cc(C2CC2(F)F)ncc1C(=O)Nc1ccc(F)c(C(N)=O)c1 (stereo not shown)    7.30
COc1cc(OC(F)(F)F)ccc1Oc1cc(C(F)(F)F)ncc1C(=O)Nc1ccc(C)c(C(N)=O)c1    6.40
COc1nc(Cl)ccc1Oc1ccc(C(F)(F)F)c(F)c1C(=O)Nc1ccnc(C(N)=O)c1    6.72

For each listed entry, give its pIC50.
1. [2H]C([2H])([2H])Oc1cc(OC(F)(F)F)ccc1Oc1ccc(C(F)(F)F)c(F)c1C(=O)Nc1cc(C(N)=O)ncc1C
2. [2H]C([2H])([2H])Oc1c(Oc2ccc(Cl)c(F)c2C(=O)Nc2cc(C(N)=O)ncc2C)ccc(OC(F)(F)F)c1F
3. Cc1cc(OC(F)(F)F)ccc1Oc1ccc(C(F)(F)F)c(F)c1C(=O)Nc1ccc(C(N)=O)c(F)c1
4. NC(=O)c1ccc(NC(=O)c2c(Cl)cc(Cl)cc2Oc2ccc(OC(F)(F)F)cc2)cn1
5. COc1cc(OC(F)(F)F)ccc1Oc1cnc(C(F)(F)F)cc1C(=O)Nc1ccc(F)c(C(N)=O)c1
6. NC(=O)c1cc(NC(=O)c2c(Oc3ccc(OC(F)(F)F)cc3)ccc(C3CC3)c2F)ccc1F
7. COc1cc(Oc2ccc(OC(F)(F)F)cc2)c(C(=O)Nc2ccc(F)c(C(N)=O)c2)c(F)c1C(F)(F)F

Data returned:
1. 8.30
2. 7.96
3. 7.42
4. 6.30
5. 7.68
6. 7.40
7. 8.10

For each listed entry, give its pIC50.
1. COc1cc(OC(F)(F)F)ccc1Oc1ccc(C(F)(F)F)c(F)c1C(=O)Nc1cc(C(N)=O)ncc1Cl
2. COc1cc(OC(F)(F)F)ccc1Oc1ccc(F)c(Cl)c1C(=O)Nc1ccc(C(N)=O)nc1
3. NC(=O)c1cc(NC(=O)c2c(Oc3ccc(OC(F)(F)F)cc3)ccc(C(F)(F)F)c2F)ccn1
4. COc1cc(OC(F)(F)F)ccc1Oc1ccc(C(F)(F)F)c(F)c1C(=O)Nc1cc(C(N)=O)ncc1F
5. COc1cc(OC(F)(F)F)ccc1Oc1cnc(C(F)(F)F)c(F)c1C(=O)Nc1ccc(F)c(C(N)=O)c1

Data returned:
7.77
6.72
7.64
8.30
9.00

For each listed entry, give its pIC50.
1. COc1cc(OC(F)(F)F)ccc1Oc1ccc(Cl)c(F)c1C(=O)Nc1cc(C(N)=O)ncc1C
2. COc1cc(OC(F)(F)F)ccc1Oc1cncc(F)c1C(=O)Nc1ccc(F)c(C(N)=O)n1
3. [2H]C([2H])([2H])Oc1cc(OC(F)(F)F)ccc1Oc1cc(Cl)cc(Cl)c1C(=O)Nc1ccc(C(N)=O)nc1
4. NC(=O)c1cc(NC(=O)c2c(Oc3ccc(OC(F)(F)F)cc3)cnc(C(F)(F)F)c2F)ccn1

Data returned:
1. 8.22
2. 5.80
3. 7.00
4. 7.42

For each listed entry, give its pIC50.
1. [2H]C([2H])([2H])Oc1c(Oc2cc(C(F)(F)F)cc(F)c2C(=O)Nc2ccnc(C(N)=O)c2)ccc(OC(F)(F)F)c1F
2. NC(=O)c1cc(NC(=O)c2c(Oc3ccc(OC(F)(F)F)cc3Cl)ccc(C(F)(F)F)c2F)ccn1

Data returned:
1. 8.10
2. 8.05

From: patent US12281057B2
